Provide the recorded EC50 for the entries that follow.
test system: Plasmodium falciparum; assay: ST_JUDE: Cytotoxicity against Plasmodium falciparum K1; assay type: functional, organism-based
Put down the number, then write its unit next to it.

Value lookup for EC50; key = Cc1c2[nH]c3ccccc3c2c2c([n+]1C)CC(C)(C)CC2
3520 nM

What do you have for CCOc1ccc(Nc2nc(NCc3ccccc3)c3ccccc3n2)cc1 ?
1440 nM

Queued: CCCO/C(O)=C1\C(C)=NC2=C(C(=O)CC(c3ccc(OC)c(OC)c3)C2)C1c1cccc(Cl)c1 (centres undefined)
426 nM

Next entry: Cc1ccc(C2(c3ccc(C)cc3)CC2C(=O)Nc2ccc([N+](=O)[O-])cc2O)cc1 (centres undefined)
741 nM

----------
tested on: Plasmodium falciparum; assay: ST_JUDE: Cytotoxicity against Plasmodium falciparum 3D7; format: functional, organism-based
test.readout: pEC50
pEC50 is defined as minus the log10 of a concentration measured in mol/L.

# input molecule: O=[N+]([O-])c1ccc2c(c1)c1ccccc1n2Cc1ccccc1O ; wanted: its pEC50
5.88

Quick one: COc1ccc(C2CC(=O)NC3=C2C(=O)CC(c2ccc(F)cc2)C3)cc1OC (stereo not given)
5.84

Check Fc1ccc(Nc2nc(NCc3ccccc3)c3ccccc3n2)cc1 too.
6.20

Follow-up entry: OC(CNC1CCCCC1)Cn1c2ccc(Cl)cc2c2cc(Cl)ccc21 (stereo not given)
5.86

Same thing, different molecule: CC(C)(C)NC(=O)c1cn(C2CCCCC2)cc(C(=O)NC2CCN(Cc3ccccc3)C2)c1=O (stereo not given)
6.10

Same thing, different molecule: OC(CNC1CCCC1)Cn1c2ccc(Cl)cc2c2cc(Cl)ccc21 (stereo not given)
6.24

Entry to check: CN1/C(=C/c2cccc[n+]2C)Sc2ccccc21
6.25

Record: CCn1nc(-c2ccc(C(F)(F)F)cc2)nc2c(=O)n(C)c(=O)nc1-2
6.40

Next entry: CCCO/C(O)=C1\C(C)=NC2=C(C(=O)CC(c3ccc(OC)c(OC)c3)C2)C1c1cccc(Cl)c1 (stereo not given)
6.14

Input Cc1ccc(C)c(N2CCN(Cc3cc(Br)ccc3O)CC2)c1
6.27

----------
tested on: Plasmodium falciparum; experiment: ST_JUDE: Plasmodium falciparum K1 EC50 (uM) as measured by SYBR green dye; assay type: functional, organism-based
For each entry below, report its pEC50 value.
The meaning of pEC50 here: minus log10 of the concentration in molar units.

Notebook: pull reported pEC50 for Plasmodium falciparum, entry Cc1ccnc(NC(c2ccc(Cl)cc2Cl)c2ccc3cccnc3c2O)c1 (stereo unspecified)
5.84

For O=[N+]([O-])c1cccc(C2Nc3ccccc3-c3nc4ccccc4n32)c1 (stereo unspecified) then?
5.37

How about this molecule: O=C(c1cccs1)N(Cc1cccnc1)c1nc2c(Cl)cccc2s1
5.42

Thanks! And CCn1c2ccccc2c2cc(CN3CCN(Cc4cc(OC)ccc4O)CC3)ccc21 ?
5.91

Do the same for C=CCNC(=S)N1CCc2cc(OC)c(OC)cc2C1c1ccccc1 (stereo unspecified) please
5.43

Then Oc1c(CN2CCN(c3cccc(C(F)(F)F)c3)CC2)cc(COCc2ccccc2)c2cccnc12 ?
5.84

----------
assay: ST_JUDE: Cytotoxicity using luciferase to measure ATP as an indicator of the viability of human epithelial embryonic kidney cells (HEK293); assay type: toxicity, cell-based
pEC50: −log10 of the molar value.
I'd be grateful if you could share measured pEC50 for these entries.

I have this compound here, CCCO/C(O)=C1\C(C)=NC2=C(C(=O)CC(c3ccc(OC)cc3)C2)C1c1ccccc1F (configuration not stated) , and I need its recorded pEC50.
< 4.35

Check Oc1ccc(Br)cc1CN1CCN(Cc2ccccc2F)CC1 too.
< 4.44

Consider next the compound Oc1ccc(C2NCc3ccccc3-n3cccc32)cc1Cl (configuration not stated) in the same way.
< 4.34

Try the compound CC(O)(c1ccc(Cl)cc1)C(CN1CCCCC1)c1ccccc1 (configuration not stated)
< 4.30

Please give the result for COc1cccc(NC(=O)C2c3ccccc3C(=O)N(CC(C)C)C2c2cccs2)c1 (configuration not stated) too.
< 4.39

Request: Cc1ccc(C)c(N2CCN(Cc3cc(Br)ccc3O)CC2)c1
< 4.45

Now consider Cc1cc(C)nc(/N=C(\N)Nc2ccccc2O)n1 and answer again.
< 4.47

Now the same for CC(C)CN1C(=O)c2ccccc2C(C(=O)Nc2ccc(F)c(Cl)c2)C1c1cccs1 (configuration not stated)
< 4.37

Would you kindly repeat that for COc1ccc(Nc2cc(C)c3ccc(O)cc3n2)cc1 ?
< 4.32

Next up: COc1ccc(O)c(CN2CCN(c3cc(C)ccc3C)CC2)c1
< 4.45

Here is the next compound: CCO/C(O)=C1\C(C)=NC2=C(C(=O)CC(c3ccc(OC)c(OC)c3)C2)C1c1ccccc1Cl (configuration not stated)
< 4.35

And what about the compound Cc1cc(Nc2ccc(Br)c(C)c2)n2nc(C)nc2n1 ?
< 4.42

----------
tested on: Plasmodium falciparum; experiment: ST_JUDE: Cytotoxicity against Plasmodium falciparum V1/S; type: functional, organism-based
test.readout: pEC50
For clarity, pEC50 is expressed as the negative log10 of concentration in mol/L.

Would you mind telling me what pEC50 value was observed for CN1C(=O)/C(=C\c2ccccc2Cl)Sc2ccc(C(=O)NC3CCN(Cc4ccccc4)CC3)cc21 ?
5.40

Do the same for CCO/C(O)=C1\C(C)=NC2=C(C(=O)CC(c3ccc(OC)c(OC)c3)C2)C1c1ccccc1C (stereo not given) please
6.98

Again, but for Cc1ccc2c(c1)S/C(=C\c1sc3ccccc3[n+]1C)N2CCO
6.24

Then CCOc1ccc(Nc2cc(C)c3ccc(O)cc3n2)cc1 ?
6.71

Next entry: COc1ccccc1/N=C1\C=C(NS(=O)(=O)c2ccc(C(C)C)cc2)c2ccccc2C1=O
6.55

Consider next the molecule CC(=O)c1cccc(NC(=O)C2c3ccccc3C(=O)N(CC(C)C)C2c2cccs2)c1 (stereo not given) in the same way.
6.43

What about this molecule? Cc1ccc(NC(=O)c2c(I)cnn2C)cc1[N+](=O)[O-]
5.43

Lookup CCN(C(C)=O)C1=C(N2CCOCC2)C(=O)c2ccccc2C1=O
6.29

And what about the molecule CCOC(=O)C1=C(C)N=c2s/c(=C\c3cc(Cl)ccc3O)c(=O)n2C1c1ccc(N(C)C)cc1 (stereo not given) ?
6.63

Param item: c1ccc(CCNc2ccnc3cc4ccccc4cc23)cc1
6.08

----------
tested on: Plasmodium falciparum; experiment: ST_JUDE: Plasmodium falciparum 3D7 EC50 (uM) as measured by SYBR green dye; format: functional, organism-based
Assign EC50 to each entry below.

Entry CCC(C(=O)NCc1ccccc1Cl)n1c2ccccc2c2nc(=O)cc(C)n21 (stereo not given) has what EC50?
> 15000 nM

Let us now turn to O=[N+]([O-])c1cc(CN2CCN(c3cccc(C(F)(F)F)c3)CC2)c2cccnc2c1O
1280 nM

Continue with Cc1nc2sc(C(c3ccc(Cl)c(Cl)c3)N3CCN(C)CC3)c(O)n2n1 (stereo not given)
> 15000 nM

Now the same for Cn1c(-c2ccc([N+](=O)[O-])cc2)[n+](C)c2ccccc21
> 15000 nM

Now the compound CN(C)CCN(C)C(=O)c1cccc(OC2CCN(Cc3ccccc3O)CC2)c1
4800 nM

Also Cc1cc(O)nc(Nc2nc(C)c3cccc(C)c3n2)n1 ?
> 15000 nM

Then OCCNc1nc(Nc2ccc(Br)cc2)nc2ccccc12 ?
829 nM

And what about the compound COc1ccc(C2C(C(=O)Nc3ccc(C)cc3Br)c3ccccc3C(=O)N2C)cc1 (stereo not given) ?
3460 nM

Follow-up entry: COc1cccc(C(=O)NCc2nnc(S)n2-c2ccc(Cl)c(Cl)c2)c1
92.8 nM

Likewise for COc1ccc(N2CCN(C(=S)Nc3ccccc3Cl)CC2C)cc1 (stereo not given) ?
1400 nM

----------
test system: Plasmodium falciparum; assay: ST_JUDE: Plasmodium falciparum 3D7 EC50 (uM) as measured by SYBR green dye; type: functional, organism-based
test.readout: pEC50
Worth noting: pEC50 values are minus log10 of concentrations stated in mol/L.

Suppose we examine the compound CSc1nc(SC)c2c3c(sc2n1)CN(C)CC3 ; what pEC50 value has been reported?
5.38

Same for CC(=O)c1cccc(NC(=O)C2c3ccccc3C(=O)N(C3CCCC3)C2c2cccs2)c1 (stereo unspecified)
5.76

How about CC(C)c1ccc(NC(=O)/C=C/c2ccccc2Cl)cc1 ?
5.96

Similarly, O=C(CSc1nc(-c2ccccc2Cl)ns1)Nc1cccc(Cl)c1 ?
5.86

Now give it for CCCC(=O)NC(c1ccccc1OC)c1ccc2cccnc2c1O (stereo unspecified) too.
5.66

Now the same for CC(C)(C)C(=O)N1CCN(c2ccc([N+](=O)[O-])c(NC3CC3)c2)CC1
6.17

----------
system: Plasmodium falciparum; assay: ST_JUDE: Cytotoxicity against Plasmodium falciparum W2; assay type: functional, organism-based
pEC50: −log10 of the molar value.
Lab note: compare pEC50 against 6. Equal or greater, write Yes. Smaller, write No.

Answer whether pEC50 of Nc1ccc(-c2nc3cc(-c4ccc5[nH]c(-c6ccc(N)cc6)nc5c4)ccc3[nH]2)cc1 is greater than or equal to 6.
Yes

Next: COCCO/C(O)=C1\C(C)=NC2=C(C(=O)CC(c3ccc(OC)c(OC)c3)C2)C1c1ccc(F)cc1 (stereo unspecified)
Yes

Another molecule to check: Cc1ccc(NC(=O)C2c3ccccc3C(=O)N(CC(C)C)C2c2cccs2)cc1C (stereo unspecified)
No

Also CCOC(=O)c1cnc2c(OC)cccc2c1Nc1ccc(OC)c(OC)c1 ?
No

Moving on to the next molecule: COc1ccc(C2CC(=O)C3=C(C2)NC(=O)CC3c2ccc(Br)cc2)cc1OC (stereo unspecified)
No

Again, but for CC(C)c1ccc(NC(=O)/C=C/c2ccccc2Cl)cc1
Yes

Let us now turn to Cc1cccc(N2CCN(Cc3cc(Br)ccc3O)CC2)c1C
No

Please answer likewise for Cc1ccc(C)c(N2CCN(Cc3cc(Br)ccc3O)CC2)c1
Yes

// query: COc1ccc(NC(=O)C2c3ccccc3C(=O)N(CC(C)C)C2c2cccs2)cc1Cl (stereo unspecified)
Yes

Please do the same for CCCO/C(O)=C1\C(C)=NC2=C(C(=O)CC(c3ccc(OC)c(OC)c3)C2)C1c1ccccc1Cl (stereo unspecified) as well.
Yes

And then O=[N+]([O-])c1ccc(S(=O)(=O)N2CCN(C(=S)NCc3ccco3)CC2)cc1 , what is it?
Yes

// repeat for CCO/C(O)=C1\C(C)=NC2=C(C(=O)CC(c3ccc(OC)c(OC)c3)C2)C1c1cccc(Cl)c1 (stereo unspecified) and report
No

Ok, now Cc1ccccc1/N=C1\C=C(NS(=O)(=O)c2ccc(F)cc2)c2ccccc2C1=O
Yes

// next record CCOC(=O)c1cccc(NC(=O)CC2C(=O)N(c3ccc(F)cc3)C(=O)N2CCC(C)C)c1 (stereo unspecified)
No

Can you handle CO/C(O)=C1\C(C)=NC2=C(C(=O)CC(c3ccc(OC)c(OC)c3)C2)C1c1ccc(F)cc1 (stereo unspecified) next?
Yes

And then OC(CNC1CCCCC1)Cn1c2ccc(Cl)cc2c2cc(Cl)ccc21 (stereo unspecified) , what is it?
Yes

Another: CC(C)(C)C(=O)N1CCN(c2ccc([N+](=O)[O-])c(NC3CC3)c2)CC1
Yes

Check CCCCN(CCCC)CC(O)COc1ccccc1C(=O)Nc1ccccc1 (stereo unspecified) too.
Yes

Repeat for the following molecule: COc1ccc(O)c(CN2CCN(c3cc(C)ccc3C)CC2)c1
Yes

Attribution: ChEMBL document CHEMBL1154198
